Measured solubility in G1/S (log2) accompanies every entry in the list below.
Test system: HeLa Kyoto
Assay: solubility in G1/S (NP-40 vs SDS abundance) (log2 ratio); higher = more soluble
Conditions: cell cycle stage: G1/S
Respond numerically, and do not add a unit to the figure.

**Q:** Entry MAAAWGSSLTAATQRAVTPWPRGRLLTASLGPQARREASSSSPEAGEGQIRLTDSCVQRLLEITEGSEFLRLQVEGGGCSGFQYKFSLDTVINPDDRVFEQGGARVVVDSDSLAFVKGAQVDFSQELIRSSFQVLNNPQAQQGCSCGSSFSIKL [ISCA2] : reported solubility in G1/S (log2) = ?
**A:** 0.276

**Q:** Next up: MAATAREDGASGQERGQRGCEHYDRGCLLKAPCCDKLYTCRLCHDNNEDHQLDRFKVKEVQCINCEKIQHAQQTCEECSTLFGEYYCDICHLFDKDKKQYHCENCGICRIGPKEDFFHCLKCNLCLAMNLQGRHKCIENVSRQNCPICLEDIHTSRVVAHVLPCGHLLHRTCYEEMLKEGYRCPLCMHSALDMTRYWRQLDDEVAQTPMPSEYQNMTVDILCNDCNGRSTVQFHILGMKCKICESYNTAQAGGRRISLDQQ [RCHY1]
**A:** 0.146

Now take the following sequence into account.
**Q:** Entry MAPARLFALLLFFVGGVAESIRETEVIDPQDLLEGRYFSGALPDDEDVVGPGQESDDFELSGSGDLDDLEDSMIGPEVVHPLVPLDNHIPERAGSGSQVPTEPKKLEENEVIPKRISPVEESEDVSNKVSMSSTVQGSNIFERTEVLAALIVGGIVGILFAVFLILLLMYRMKKKDEGSYDLGKKPIYKKAPTNEFYA [SDC4] : reported solubility in G1/S (log2) = ?
**A:** -0.523

---

System: HeLa Kyoto
Assay: solubility change mitosis vs G1/S (difference of NP-40 vs SDS log2 ratios) (log2 ratio difference); higher = more soluble in mitosis
observable: solubility change mitosis (log2)
Respond numerically, and do not add a unit to the figure.

**Q:** Entry MASTGSQASDIDEIFGFFNDGEPPTKKPRKLLPSLKTKKPRELVLVIGTGISAAVAPQVPALKSWKGLIQALLDAAIDFDLLEDEESKKFQKCLHEDKNLVHVAHDLIQKLSPRTSNVRSTFFKDCLYEVFDDLESKMEDSGKQLLQSVLHLMENGALVLTTNFDNLLELYAADQGKQLESLDLTDEKKVLEWAQEKRKLSVLHIHGVYTNPSGIVLHPAGYQNVLRNTEVMREIQKLYENKSFLFLGCGWTVDDTTFQALFLEAVKHKSDLEHFMLVRRGDVDEFKKLRENMLDKGIKVISYGDDYADLPEYFKRLTCEISTRGTSAGMVREGQLNGSSAAHSEIRGCST [FAM118B] : reported solubility change mitosis (log2) = ?
**A:** -0.123

---

Measured melting temperature accompanies every entry in the list below.
Test system: HeLa Kyoto
Assay: melting temperature (median over replicates), in situ; higher = more thermally stable
Details: cell cycle stage: G1/S
// units = °C; emit number, no label

The examples below pair each entry with its known result.
**Q:** Entry MTELQSALLLRRQLAELNKNPVEGFSAGLIDDNDLYRWEVLIIGPPDTLYEGGVFKAHLTFPKDYPLRPPKMKFITEIWHPNVDKNGDVCISILHEPGEDKYGYEKPEERWLPIHTVETIMISVISMLADPNGDSPANVDAAKEWREDRNGEFKRKVARCVRKSQETAFE [UBE2G1] : reported melting temperature = ?
**A:** 51.7

**Q:** Next up: MVGEMETKEKPKPTPDYLMQLMNDKKLMSSLPNFCGIFNHLERLLDEEISRVRKDMYNDTLNGSTEKRSAELPDAVGPIVQLQEKLYVPVKEYPDFNFVGRILGPRGLTAKQLEAETGCKIMVRGKGSMRDKKKEEQNRGKPNWEHLNEDLHVLITVEDAQNRAEIKLKRAVEEVKKLLVPAAEGEDSLKKMQLMELAILNGTYRDANIKSPALAFSLAATAQAAPRIITGPAPVLPPAALRTPTPAGPTIMPLIRQIQTAVMPNGTPHPTAAIVPPGPEAGLIYTPYEYPYTLAPATSILEYPIEPSGVLGAVATKVRRHDMRVHPYQRIVTADRAATGN [QKI]
**A:** 50.2

Further cases:
**Q:** Entry MDKVCAVFGGSRGIGRAVAQLMARKGYRLAVIARNLEGAKAAAGDLGGDHLAFSCDVAKEHDVQNTFEELEKHLGRVNFLVNAAGINRDGLLVRTKTEDMVSQLHTNLLGSMLTCKAAMRTMIQQQGGSIVNVGSIVGLKGNSGQSVYSASKGGLVGFSRALAKEVARKKIRVNVVAPGFVHTDMTKDLKEEHLKKNIPLGRFGETIEVAHAVVFLLESPYITGHVLVVDGGLQLIL [CBR4] : reported melting temperature = ?
**A:** 54

---

Tested on: HeLa Kyoto
Assay: thermal stability score vs G1/S (z-score of summed log2 fold changes over temperatures); higher = more thermally stable than in G1/S
Conditions: cell cycle stage: early G1 (4.5 h after nocodazole release)
Measured thermal stability score accompanies every entry in the list below.
Respond numerically, and do not add a unit to the figure.

The examples below pair each entry with its known result.
**Q:** Look up thermal stability score with HeLa Kyoto for this sequence: MSLLRSLRVFLVARTGSYPAGSLLRQSPQPRHTFYAGPRLSASASSKELLMKLRRKTGYSFVNCKKALETCGGDLKQAEIWLHKEAQKEGWSKAAKLQGRKTKEGLIGLLQEGNTTVLVEVNCETDFVSRNLKFQLLVQQVALGTMMHCQTLKDQPSAYSKGFLNSSELSGLPAGPDREGSLKDQLALAIGKLGENMILKRAAWVKVPSGFYVGSYVHGAMQSPSLHKLVLGKYGALVICETSEQKTNLEDVGRRLGQHVVGMAPLSVGSLDDEPGGEAETKMLSQPYLLDPSITLGQYVQPQGVSVVDFVRFECGEGEEAAETE [TSFM]
**A:** -0.0634

**Q:** Next up: MSDLRITEAFLYMDYLCFRALCCKGPPPARPEYDLVCIGLTGSGKTSLLSKLCSESPDNVVSTTGFSIKAVPFQNAILNVKELGGADNIRKYWSRYYQGSQGVIFVLDSASSEDDLEAARNELHSALQHPQLCTLPFLILANHQDKPAARSVQEIKKYFELEPLARGKRWILQPCSLDDMDALKDSFSQLINLLEEKDHEAVRM [ARL15]
**A:** -0.792

Further cases:
**Q:** Look up thermal stability score with HeLa Kyoto for this sequence: MSIMSYNGGAVMAMKGKNCVAIAADRRFGIQAQMVTTDFQKIFPMGDRLYIGLAGLATDVQTVAQRLKFRLNLYELKEGRQIKPYTLMSMVANLLYEKRFGPYYTEPVIAGLDPKTFKPFICSLDLIGCPMVTDDFVVSGTCAEQMYGMCESLWEPNMDPDHLFETISQAMLNAVDRDAVSGMGVIVHIIEKDKITTRTLKARMD [PSMB3]
**A:** -1.89

---

System: HeLa Kyoto
Experiment: solubility change mitosis vs G1/S (difference of NP-40 vs SDS log2 ratios) (log2 ratio difference); higher = more soluble in mitosis
observable: solubility change mitosis (log2)
Respond numerically, and do not add a unit to the figure.

**Q:** Look up solubility change mitosis (log2) with HeLa Kyoto for this sequence: MAAAAGDADDEPRSGHSSSEGECAVAPEPLTDAEGLFSFADFGSALGGGGAGLSGRASGGAQSPLRYLHVLWQQDAEPRDELRCKIPAGRLRRAARPHRRLGPTGKEVHALKRLRDSANANDVETVQQLLEDGADPCAADDKGRTALHFASCNGNDQIVQLLLDHGADPNQRDGLGNTPLHLAACTNHVPVITTLLRGGARVDALDRAGRTPLHLAKSKLNILQEGHAQCLEAVRLEVKQIIHMLREYLERLGQHEQRERLDDLCTRLQMTSTKEQVDEVTDLLASFTSLSLQMQSMEKR [ANKRD54]
**A:** -0.169

**Q:** Next up: MGDHAWSFLKDFLAGGVAAAVSKTAVAPIERVKLLLQVQHASKQISAEKQYKGIIDCVVRIPKEQGFLSFWRGNLANVIRYFPTQALNFAFKDKYKQLFLGGVDRHKQFWRYFAGNLASGGAAGATSLCFVYPLDFARTRLAADVGKGAAQREFHGLGDCIIKIFKSDGLRGLYQGFNVSVQGIIIYRAAYFGVYDTAKGMLPDPKNVHIFVSWMIAQSVTAVAGLVSYPFDTVRRRMMMQSGRKGADIMYTGTVDCWRKIAKDEGAKAFFKGAWSNVLRGMGGAFVLVLYDEIKKYV [SLC25A4]
**A:** -0.117

**Q:** Next up: MAEPGEGLPEEVLALIFRHLSLRDRAAAARVCRAWAAAATCSAVWHDTKISCECELEGMLPPYLSACLDHIHNLRLEFEPSRKPSRRAAIELLMVLAGRAPGLRGLRLECRGEKPLFDAGRDVLEAVHAVCGAASQLRHLDLRRLSFTLDDALVLQAARSCPELHSLFLDNSTLVGSVGPGSVLELLEACPRLRALGLHLASLSHAILEALAAPDRAPFALLALRCACPEDARASPLPNEAWVALRRRHPGLAVELELEPALPAESVTRVLQPAVPVAALRLNLSGDTVGPVRFAAHHYAATLCALEVRAAASAELNAALEELAARCAALREVHCFCVVSHSVLDAFRAHCPRLRTYTLKLTREPHPWRPTLVA [FBXL8]
**A:** -0.0843

**Q:** Next up: MSLGRLCRLLKPALLCGALAAPGLAGTMCASRDDWRCARSMHEFSAKDIDGHMVNLDKYRGFVCIVTNVASQUGKTEVNYTQLVDLHARYAECGLRILAFPCNQFGKQEPGSNEEIKEFAAGYNVKFDMFSKICVNGDDAHPLWKWMKIQPKGKGILGNAIKWNFTKFLIDKNGCVVKRYGPMEEPLVIEKDLPHYF [GPX4]
**A:** -0.141

Now take the following sequence into account.
**Q:** Look up solubility change mitosis (log2) with HeLa Kyoto for this sequence: MSPRRTLPRPLSLCLSLCLCLCLAAALGSAQSGSCRDKKNCKVVFSQQELRKRLTPLQYHVTQEKGTESAFEGEYTHHKDPGIYKCVVCGTPLFKSETKFDSGSGWPSFHDVINSEAITFTDDFSYGMHRVETSCSQCGAHLGHIFDDGPRPTGKRYCINSAALSFTPADSSGTAEGGSGVASPAQADKAEL [MSRB3]
**A:** 0.0421
